# ASSAY_TARGET: CDC25C (Homo sapiens, UniProt P30307)
# Sequence (P30307 whole entry): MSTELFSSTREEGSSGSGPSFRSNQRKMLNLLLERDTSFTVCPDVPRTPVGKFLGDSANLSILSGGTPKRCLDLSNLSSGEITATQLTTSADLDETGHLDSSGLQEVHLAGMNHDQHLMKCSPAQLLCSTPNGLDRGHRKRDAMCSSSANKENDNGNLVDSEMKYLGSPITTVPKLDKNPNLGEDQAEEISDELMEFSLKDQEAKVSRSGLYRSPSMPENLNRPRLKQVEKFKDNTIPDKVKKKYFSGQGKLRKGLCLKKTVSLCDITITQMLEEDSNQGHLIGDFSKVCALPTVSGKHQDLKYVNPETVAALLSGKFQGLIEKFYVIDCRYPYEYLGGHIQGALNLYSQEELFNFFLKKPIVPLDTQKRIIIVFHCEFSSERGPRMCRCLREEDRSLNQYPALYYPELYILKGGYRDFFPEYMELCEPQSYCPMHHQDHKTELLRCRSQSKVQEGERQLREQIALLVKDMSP
# EXPERIMENT_DESCRIPTION: CDC25C Enzyme Assay (hydrolysis of fluorogenic substrate OMFP)
# Assay type: biochemical
# CONDITION_PARAMETERS: after 20 minutes of pre-incubation; read-out: IC50 against CDC25C
pIC50: −log10 of the molar value.
QUANTITY_NAME: pIC50

{"columns": ["COMPOUND_STRING", "QUANTITY_NAME", "OBSERVED_MEASUREMENT"],
 "data": [
  ["Cc1cc(=O)[nH]c2c(O)c3c(cc12)c(C)cc(=O)n3C", "pIC50", 6.74]
]}

---

Measured IC50 accompanies every entry in the list below.
# Test system: H460
# EXPERIMENT_DESCRIPTION: Cell proliferation Assay (Alamar Blue), H460
# Type: cell-based
# CONDITION_PARAMETERS: Homo sapiens, NCI-H460, 72 hrs

{"columns": ["COMPOUND", "ASSAY_TARGET", "IC50"],
 "data": [
  ["Cc1cc(=O)n2c3c(c4c(cc13)c(CO)cc(=O)n4C)OC2 [Example 1, nybomycin]", "H460", "230 nM"],
  ["Cc1cc(=O)[nH]c2c(O)c3c(cc12)c(C)cc(=O)n3C [Example 5]", "H460", "< 300 nM"],
  ["Cc1cc(=O)n(C)c2c(O)c3c(cc12)c(C)cc(=O)n3C [Example 6]", "H460", "< 10000 nM"]
]}

---

# Tested on: DU145
# EXPERIMENT_DESCRIPTION: Cell proliferation Assay (Alamar Blue), DU145
# Format: cell-based
# CONDITION_PARAMETERS: Homo sapiens, DU-145, 72 hrs
# Experimental: Used cell lines: HCT116; DU145; A549, H460 In a 96-well plate, 3000 cells/well were plated in 100 µl DMEM containing 10% FBS, 10 mM HEPES and 1% Penicllin/Streptomycin. To each well 50 µl of additional growth media containing the compound with 0.1% DMSO was added. Cells were grown for 72 hrs. at 37°C. […] Plates were read in a SpectraMax Gemini (Molecular Devices, CA) with 544 nm excitation and 590 nm emission wavelength.
pIC50: −log10 of the molar value.
QUANTITY_NAME: pIC50

{"columns": ["COMPOUND_STRING", "OBSERVED_MEASUREMENT"],
 "data": [
  ["Cc1cc(=O)n2c3c(c4c(cc13)c(CO)cc(=O)n4C)OC2", 6.14],
  ["Cc1cc(=O)[nH]c2c(O)c3c(cc12)c(C)cc(=O)n3C", 7.00],
  ["Cc1cc(=O)n(C)c2c(O)c3c(cc12)c(C)cc(=O)n3C", 5.52]
]}

---

# ASSAY_TARGET: CDC25C (Homo sapiens)
# EXPERIMENT_DESCRIPTION: CDC25C Enzyme Assay (hydrolysis of fluorogenic substrate OMFP)
# Format: biochemical
# CONDITION_PARAMETERS: OMFP 90 µM, ambient temperature, assay run time 20 minutes; read-out: IC50
# Description: The assay principle was hydrolysis of an artificial fluorogenic substrate of CDC25C, 3-0-methyl-fluorescein monophosphate (OMFP). […] The assay was performed in 96 well microtiter plates (Greiner 96 well black FIA plates) at ambient temperature. […] Ortho-vanadate was used as a reference inhibitor. […] The microtiter plates were analyzed using a Tecan Ultra fluorescence reader.
pIC50: −log10 of the molar value.
Measured pIC50 accompanies every entry in the list below.

{"columns": ["COMPOUND", "QUALIFYING_SIGN", "pIC50"],
 "data": [
  ["Cc1cc(=O)n(C)c2c3c4c(c(C)cc(=O)n4CO3)c(O)c12 [Example 3, 7-hydroxy-deoxynybomycin]", "=", 5.30],
  ["Cc1cc(=O)n(C)c2c(O)c3c(cc12)c(C)cc(=O)n3O", "=", 6.28],
  ["CCCc1c2c([nH]c(=O)c1C)C(=O)c1[nH]c(=O)c(C)c(CCC)c1C2=O", "=", 3.65],
  ["Cc1cc(=O)n(C)c2c3c4c(cc12)c(C)cc(=O)n4CO3", "<", 5.00],
  ["Cc1cc(=O)[nH]c2c(O)c3c(cc12)c(CO)cc(=O)n3C", "=", 6.03]
]}
